Reported fold difference in affinity vs original is given for each of the following binders.
- Study target: T1, IL-1β (UniProt P01584 117-269)
- T1 construct: Antigen immobilised on the Biacore chip
- Procedure details: Biacore, periplasmic extract
Quantity kind: fold difference in affinity vs original (fold)

INSERT INTO assay_data (binder, quantitative_readout) VALUES
  ('XPA23 light chain A91E (Fab, V domains shown) VH: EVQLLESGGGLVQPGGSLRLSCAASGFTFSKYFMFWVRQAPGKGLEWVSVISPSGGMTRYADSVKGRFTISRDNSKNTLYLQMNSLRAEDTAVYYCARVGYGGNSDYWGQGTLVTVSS VL: DIQMTQSPSSVSASVGDRLTIICRASQDINRWLAWYQQTPGNAPKLLIHSATSLQSGVPSRFSGSGSGTDFTLTINSLQPEDFATYYCQQEDSFPLTFGGGTKVEIK', 0.1),
  ('XPA23 light chain S50K (Fab, V domains shown) VH: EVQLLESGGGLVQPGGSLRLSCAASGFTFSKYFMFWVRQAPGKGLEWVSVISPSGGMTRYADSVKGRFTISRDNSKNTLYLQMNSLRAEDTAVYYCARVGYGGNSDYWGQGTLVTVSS VL: DIQMTQSPSSVSASVGDRLTIICRASQDINRWLAWYQQTPGNAPKLLIHKATSLQSGVPSRFSGSGSGTDFTLTINSLQPEDFATYYCQQADSFPLTFGGGTKVEIK', 0.1),
  ('XPA23 light chain D28P (Fab, V domains shown) VH: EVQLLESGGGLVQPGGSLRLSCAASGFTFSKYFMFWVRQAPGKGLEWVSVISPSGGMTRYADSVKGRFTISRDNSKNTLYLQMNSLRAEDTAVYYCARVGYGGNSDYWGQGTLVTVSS VL: DIQMTQSPSSVSASVGDRLTIICRASQPINRWLAWYQQTPGNAPKLLIHSATSLQSGVPSRFSGSGSGTDFTLTINSLQPEDFATYYCQQADSFPLTFGGGTKVEIK', 1.17);
